# target of assay: GST-tagged ROR gamma ligand binding domain (LBD) (Homo sapiens)
# Construct: purchased Invitrogen
# Sequence (P51449 269-508 limits assumed): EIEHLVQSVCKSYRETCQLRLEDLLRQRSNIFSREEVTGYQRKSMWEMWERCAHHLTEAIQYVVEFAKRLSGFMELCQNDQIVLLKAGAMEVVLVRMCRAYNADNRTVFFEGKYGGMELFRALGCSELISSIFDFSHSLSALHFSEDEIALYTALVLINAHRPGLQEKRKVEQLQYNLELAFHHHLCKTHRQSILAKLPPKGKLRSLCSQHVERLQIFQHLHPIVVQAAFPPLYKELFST
# test method notes: TR-FRET assay for ROR gamma (Lantha Screen, co-activator peptide recruitment)
# Format: biochemical
# conditions used: read-out: % inhibition at 1 μM; compound concentration 1 μM; TR-FRET ratio 520/495, percent of control
Give measured inhibition at 1 µM for each item. Keep answers brief.
Write down the numeric answer in % and omit the unit.

INPUT: Request: inhibition at 1 µM, test system GST-tagged ROR gamma ligand binding domain (LBD) (Homo sapiens), entry O=C(O)c1ccc(-n2nc(Oc3c(Cl)cccc3Cl)c3ccccc32)c(F)c1 [Example 6]
OUTPUT: 99.2

INPUT: Request: inhibition at 1 µM, test system GST-tagged ROR gamma ligand binding domain (LBD) (Homo sapiens), entry O=C(O)c1ccc(-n2nc(C(=O)c3c(Cl)cccc3C(F)(F)F)c3ccccc32)c(F)c1 [Example 33]
OUTPUT: 98.1

INPUT: Request: inhibition at 1 µM, test system GST-tagged ROR gamma ligand binding domain (LBD) (Homo sapiens), entry O=C(O)c1ccc(-n2nc(C(=O)c3ccccc3)c3ccccc32)c(F)c1 [Example 30]
OUTPUT: 47.1

INPUT: Request: inhibition at 1 µM, test system GST-tagged ROR gamma ligand binding domain (LBD) (Homo sapiens), entry O=C(O)c1ccc(-n2nc(C(=O)c3c(Cl)cccc3C3CC3)c3cccc(F)c32)cc1 [Example 35]
OUTPUT: 92.3

INPUT: Request: inhibition at 1 µM, test system GST-tagged ROR gamma ligand binding domain (LBD) (Homo sapiens), entry O=C(O)c1ccc(-n2nc(Oc3c(Cl)cccc3Cl)c3cccc(F)c32)c(F)c1 [Example 11]
OUTPUT: 98.1

INPUT: Request: inhibition at 1 µM, test system GST-tagged ROR gamma ligand binding domain (LBD) (Homo sapiens), entry O=C(O)c1ccc(-n2nc(Oc3c(Cl)cccc3C(F)(F)F)c3ccccc32)c(F)c1 [Example 7]
OUTPUT: 95.3

INPUT: Request: inhibition at 1 µM, test system GST-tagged ROR gamma ligand binding domain (LBD) (Homo sapiens), entry O=C(O)c1ccc(-n2cc(C(=O)c3c(Cl)cccc3Cl)c3cccnc32)c(F)c1 [Example 27]
OUTPUT: 95.6

INPUT: Request: inhibition at 1 µM, test system GST-tagged ROR gamma ligand binding domain (LBD) (Homo sapiens), entry Cc1ccccc1Oc1nn(-c2ccc(C(=O)O)cc2)c2ccccc12 [Example 1]
OUTPUT: 90

INPUT: Request: inhibition at 1 µM, test system GST-tagged ROR gamma ligand binding domain (LBD) (Homo sapiens), entry O=C(O)c1ccc(-n2nc(C(=O)c3c(Cl)cccc3Cl)c3cccnc32)cc1 [Example 36]
OUTPUT: 95.7

INPUT: Request: inhibition at 1 µM, test system GST-tagged ROR gamma ligand binding domain (LBD) (Homo sapiens), entry O=C(O)c1ccc(-n2nc(Oc3c(Cl)cccc3C(F)F)c3ccccc32)c(F)c1 [Example 10]
OUTPUT: 100

INPUT: Request: inhibition at 1 µM, test system GST-tagged ROR gamma ligand binding domain (LBD) (Homo sapiens), entry O=C(O)c1ccc(-n2nc(Oc3c(Cl)cccc3C(F)F)c3cccc(F)c32)c(F)c1 [Example 12]
OUTPUT: 94.4

INPUT: Request: inhibition at 1 µM, test system GST-tagged ROR gamma ligand binding domain (LBD) (Homo sapiens), entry O=C(O)c1ccc(-n2nc(C(=O)c3ccccc3)c3ccccc32)cc1 [Example 28]
OUTPUT: 30.2

INPUT: Request: inhibition at 1 µM, test system GST-tagged ROR gamma ligand binding domain (LBD) (Homo sapiens), entry O=C(O)c1ccc(-n2nc(C(=O)c3c(Cl)cccc3C(F)(F)F)c3cccnc32)cc1 [Example 38]
OUTPUT: 96.8

INPUT: Request: inhibition at 1 µM, test system GST-tagged ROR gamma ligand binding domain (LBD) (Homo sapiens), entry O=C(O)c1ccc(-n2nc(Oc3c(Cl)cccc3C3CC3)c3ccccc32)c(F)c1 [Example 13]
OUTPUT: 91.7

INPUT: Request: inhibition at 1 µM, test system GST-tagged ROR gamma ligand binding domain (LBD) (Homo sapiens), entry O=C(O)c1ccc(-n2nc(Oc3ccccc3)c3ccccc32)cc1 [Example 4]
OUTPUT: 31.2

INPUT: Request: inhibition at 1 µM, test system GST-tagged ROR gamma ligand binding domain (LBD) (Homo sapiens), entry CCOC(=O)c1ccc(-n2nc(Oc3c(Cl)cccc3C(F)(F)F)c3ccccc32)c(F)c1 [Example 45]
OUTPUT: 97.9

INPUT: Request: inhibition at 1 µM, test system GST-tagged ROR gamma ligand binding domain (LBD) (Homo sapiens), entry CCCOC(=O)c1ccc(-n2nc(Oc3c(Cl)cccc3C(F)(F)F)c3ccccc32)c(F)c1 [Example 46]
OUTPUT: 10.9

---

# target of assay: GST-tagged ROR gamma ligand binding domain (LBD) (Homo sapiens)
# Construct: purchased Invitrogen
# test method notes: TR-FRET assay for ROR gamma (Lantha Screen, co-activator peptide recruitment)
# Type: biochemical
pIC50: −log10 of the molar value.
assay metric: pIC50

INPUT: What value of pIC50 has been recorded for this entry: O=C(O)c1ccc(-n2cc(C(=O)c3c(Cl)cccc3C(F)(F)F)c3ccccc32)c(F)c1
OUTPUT: > 7.30

INPUT: What value of pIC50 has been recorded for this entry: O=C(O)c1ccc(-n2cc(C(=O)c3c(Cl)cccc3Cl)c3c(F)cccc32)c(F)c1
OUTPUT: > 7.30

INPUT: What value of pIC50 has been recorded for this entry: O=C(O)c1ccc(-n2cc(C(=O)c3ccccc3Cl)c3ccccc32)cc1
OUTPUT: 7.00 to 7.30

INPUT: What value of pIC50 has been recorded for this entry: O=C(O)c1ccc(-n2cc(C(=O)c3c(F)cccc3F)c3ccccc32)cc1
OUTPUT: 7.00 to 7.30

INPUT: What value of pIC50 has been recorded for this entry: O=C(O)c1ccc(-n2cc(C(=O)c3c(Cl)cccc3Cl)c3ccccc32)cc1
OUTPUT: > 7.30

---

# target of assay: GST-tagged ROR gamma ligand binding domain (LBD) (Homo sapiens)
# Construct: purchased Invitrogen
# test method notes: TR-FRET assay for ROR gamma (Lantha Screen, co-activator peptide recruitment)
# Assay type: biochemical
# conditions used: read-out: % inhibition at 10 μM; compound concentration 10 μM; TR-FRET ratio 520/495, percent of control
Label t when inhibition at 10 µM is strictly below 90%; otherwise label f.

INPUT: Is 90% strictly greater than the compound's reported inhibition at 10 µM? compound: O=C(O)c1ccc(-n2cc(C(=O)c3c(Cl)cccc3Cl)c3cccnc32)c(F)c1
OUTPUT: f

INPUT: Is 90% strictly greater than the compound's reported inhibition at 10 µM? compound: O=C(O)c1ccc(-n2nc(C(=O)c3c(Cl)cccc3C(F)(F)F)c3cccnc32)cc1
OUTPUT: f

INPUT: Is 90% strictly greater than the compound's reported inhibition at 10 µM? compound: O=C(O)c1ccc(-n2nc(Oc3c(Cl)cccc3C(F)F)c3ccccc32)c(F)c1
OUTPUT: f

INPUT: Is 90% strictly greater than the compound's reported inhibition at 10 µM? compound: O=C(O)c1ccc(-n2cc(C(=O)c3c(Cl)cccc3Cl)c3cc(F)ccc32)c(F)c1
OUTPUT: f

INPUT: Is 90% strictly greater than the compound's reported inhibition at 10 µM? compound: CC(C)OC(=O)c1ccc(-n2nc(Oc3c(Cl)cccc3C(F)(F)F)c3ccccc32)c(F)c1
OUTPUT: t

INPUT: Is 90% strictly greater than the compound's reported inhibition at 10 µM? compound: O=C(O)c1ccc(-n2nc(Oc3c(Cl)cccc3Cl)c3cccc(F)c32)c(F)c1
OUTPUT: f

INPUT: Is 90% strictly greater than the compound's reported inhibition at 10 µM? compound: O=C(O)c1ccc(-n2nc(C(=O)c3c(Cl)cccc3C(F)(F)F)c3ccccc32)c(F)c1
OUTPUT: f

INPUT: Is 90% strictly greater than the compound's reported inhibition at 10 µM? compound: O=C(O)c1ccc(-n2nc(Oc3c(Cl)cccc3C(F)(F)F)c3ccccc32)c(F)c1
OUTPUT: f

INPUT: Is 90% strictly greater than the compound's reported inhibition at 10 µM? compound: O=C(O)c1ccc(-n2nc(Oc3ccccc3)c3ccccc32)cc1
OUTPUT: t

---

# target of assay: GST-tagged ROR gamma ligand binding domain (LBD) (Homo sapiens)
# Construct: purchased Invitrogen
# test method notes: TR-FRET assay for ROR gamma (Lantha Screen, co-activator peptide recruitment)
# Format: biochemical
# conditions used: read-out: % inhibition at 10 μM; compound concentration 10 μM; TR-FRET ratio 520/495, percent of control
Give measured inhibition at 10 µM for each item. Keep answers brief.
Write down the numeric answer in % and omit the unit.

INPUT: Request: inhibition at 10 µM, test system GST-tagged ROR gamma ligand binding domain (LBD) (Homo sapiens), entry O=C(O)c1ccc(-n2nc(C(=O)c3c(Cl)cccc3Cl)c3cccnc32)cc1 [Example 36]
OUTPUT: 96.4

INPUT: Request: inhibition at 10 µM, test system GST-tagged ROR gamma ligand binding domain (LBD) (Homo sapiens), entry O=C(O)c1ccc(-n2cc(C(=O)c3c(Cl)cccc3Cl)c3ccc(F)cc32)c(F)c1 [Example 24]
OUTPUT: 97.8

INPUT: Request: inhibition at 10 µM, test system GST-tagged ROR gamma ligand binding domain (LBD) (Homo sapiens), entry CCOC(=O)c1ccc(-n2nc(Oc3c(Cl)cccc3C(F)(F)F)c3ccccc32)c(F)c1 [Example 45]
OUTPUT: 93.7

INPUT: Request: inhibition at 10 µM, test system GST-tagged ROR gamma ligand binding domain (LBD) (Homo sapiens), entry Cc1cccc(Oc2nn(-c3ccc(C(=O)O)cc3)c3ccccc23)c1 [Example 3]
OUTPUT: 34.6

INPUT: Request: inhibition at 10 µM, test system GST-tagged ROR gamma ligand binding domain (LBD) (Homo sapiens), entry O=C(O)c1ccc(-n2nc(Oc3ccccc3C(F)(F)F)c3ccccc32)c(F)c1 [Example 8]
OUTPUT: 98.2

INPUT: Request: inhibition at 10 µM, test system GST-tagged ROR gamma ligand binding domain (LBD) (Homo sapiens), entry CCCCOC(=O)c1ccc(-n2nc(Oc3c(Cl)cccc3C(F)(F)F)c3ccccc32)c(F)c1 [Example 47]
OUTPUT: 91.9

INPUT: Request: inhibition at 10 µM, test system GST-tagged ROR gamma ligand binding domain (LBD) (Homo sapiens), entry O=C(O)c1ccc(-n2cc(C(=O)c3ccccc3Cl)c3ccccc32)c(F)c1 [Example 20]
OUTPUT: 100

INPUT: Request: inhibition at 10 µM, test system GST-tagged ROR gamma ligand binding domain (LBD) (Homo sapiens), entry CCCOC(=O)c1ccc(-n2nc(Oc3c(Cl)cccc3C(F)(F)F)c3ccccc32)c(F)c1 [Example 46]
OUTPUT: 28.5

INPUT: Request: inhibition at 10 µM, test system GST-tagged ROR gamma ligand binding domain (LBD) (Homo sapiens), entry O=C(O)c1ccc(-n2nc(C(=O)c3c(Cl)cccc3Cl)c3cccc(F)c32)cc1 [Example 32]
OUTPUT: 90.4

INPUT: Request: inhibition at 10 µM, test system GST-tagged ROR gamma ligand binding domain (LBD) (Homo sapiens), entry O=C(O)c1ccc(-n2nc(Oc3c(Cl)cccc3C3CC3)c3cccc(F)c32)c(F)c1 [Example 14]
OUTPUT: 91.2

INPUT: Request: inhibition at 10 µM, test system GST-tagged ROR gamma ligand binding domain (LBD) (Homo sapiens), entry O=C(O)c1ccc(-n2cc(C(=O)c3ccccc3F)c3ccccc32)cc1 [Example 15]
OUTPUT: 95.8

INPUT: Request: inhibition at 10 µM, test system GST-tagged ROR gamma ligand binding domain (LBD) (Homo sapiens), entry O=C(O)c1ccc(-n2nc(C(=O)c3ccccc3)c3ccccc32)cc1 [Example 28]
OUTPUT: 62.9
